Where these numbers come from: ChEMBL document CHEMBL1806396

# targetSystem: UniProtKB P07948
# Sequence (P07948 whole entry): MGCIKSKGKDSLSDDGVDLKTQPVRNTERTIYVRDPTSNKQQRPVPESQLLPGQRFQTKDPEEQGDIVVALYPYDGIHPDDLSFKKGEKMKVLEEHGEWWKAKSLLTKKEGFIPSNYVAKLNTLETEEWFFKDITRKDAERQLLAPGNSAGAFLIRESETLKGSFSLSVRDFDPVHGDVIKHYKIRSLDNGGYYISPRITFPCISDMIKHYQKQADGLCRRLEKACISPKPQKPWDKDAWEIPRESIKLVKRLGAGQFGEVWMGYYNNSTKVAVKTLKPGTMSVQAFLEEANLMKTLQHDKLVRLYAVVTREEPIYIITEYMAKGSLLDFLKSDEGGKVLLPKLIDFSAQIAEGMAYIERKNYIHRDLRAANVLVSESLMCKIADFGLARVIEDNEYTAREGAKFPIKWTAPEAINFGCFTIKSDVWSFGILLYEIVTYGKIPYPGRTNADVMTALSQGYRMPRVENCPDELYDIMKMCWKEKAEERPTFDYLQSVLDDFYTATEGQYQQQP
parameterMeasured: IC50 (nM)

- CC(C)c1nc(-c2ccc(F)c(NS(=O)(=O)c3c(F)cccc3F)c2)c(-c2ccnc(Nc3ccc(N4CCOCC4)nc3)n2)s1: 10

* * *

# Tested on: SK-MEL-28
# methodSummary: Antiproliferative activity against human SK-MEL-28 cells expressing B-Raf V600E mutant after 3 days by CellTiter-Glo assay
# Assay type: functional, cell-based
# conditionDescription: Homo sapiens, SK-MEL-28, 72 h
pEC50: −log10 of the molar value.
Below, each entry is listed with its recorded pEC50.
parameterMeasured: pEC50

- CN1CCc2ccc(Nc3nccc(-c4c(-c5cccc(NC(=O)c6c(F)cccc6F)c5)nc5ccccn45)n3)cc2C1: 5.27
- CC(=O)N1CCN(c2ccc(Nc3nccc(-c4sc(C(C)C)nc4-c4cccc(NS(=O)(=O)c5ccc(F)cc5)c4)n3)cn2)CC1: 7.16
- CC(C)c1nc(-c2cccc(NS(=O)(=O)c3c(F)cccc3F)c2)c(-c2ccnc(Nc3ccc(N4CCOCC4)nc3)n2)s1: 8.22
- CC(C)c1nc(-c2cccc(NS(=O)(=O)c3ccccc3)c2)c(-c2ccnc(Nc3ccc4c(c3)CN(C)CC4)n2)s1: 6.54

* * *

# targetSystem: Serine/threonine-protein kinase B-raf (Homo sapiens, UniProt P15056, V600E)
# Sequence (P15056 2-766 V600E limits assumed): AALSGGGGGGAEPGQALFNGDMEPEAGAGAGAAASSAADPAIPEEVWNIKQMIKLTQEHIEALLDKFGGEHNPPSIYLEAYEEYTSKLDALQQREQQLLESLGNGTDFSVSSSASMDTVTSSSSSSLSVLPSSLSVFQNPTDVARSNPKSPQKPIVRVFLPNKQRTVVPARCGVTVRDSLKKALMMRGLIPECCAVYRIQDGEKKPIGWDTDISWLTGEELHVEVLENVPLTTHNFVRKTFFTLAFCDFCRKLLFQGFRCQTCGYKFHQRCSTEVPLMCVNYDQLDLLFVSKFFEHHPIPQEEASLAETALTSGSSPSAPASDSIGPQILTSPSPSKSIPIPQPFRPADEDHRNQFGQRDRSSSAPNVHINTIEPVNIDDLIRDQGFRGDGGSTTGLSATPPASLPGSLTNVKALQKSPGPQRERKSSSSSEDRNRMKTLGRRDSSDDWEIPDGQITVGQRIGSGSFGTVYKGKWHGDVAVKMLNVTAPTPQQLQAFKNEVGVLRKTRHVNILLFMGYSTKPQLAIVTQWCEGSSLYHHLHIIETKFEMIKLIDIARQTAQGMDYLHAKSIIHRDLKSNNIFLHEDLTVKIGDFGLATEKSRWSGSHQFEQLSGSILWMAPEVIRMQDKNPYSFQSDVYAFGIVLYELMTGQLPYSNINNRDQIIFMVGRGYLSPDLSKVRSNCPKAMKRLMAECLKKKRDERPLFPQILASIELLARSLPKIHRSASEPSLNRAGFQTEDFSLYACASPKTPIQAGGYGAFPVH
# methodSummary: Inhibition of B-Raf V600E mutant
pIC50: −log10 of the molar value.
parameterMeasured: pIC50

• CCc1nc(-c2cccc(N(C)S(=O)(=O)c3ccccc3)c2)c(-c2ccnc(Nc3ccc(N4CCN(C(C)=O)CC4)nc3)n2)s1 = 5.71
• CC(=O)N1CCN(c2ccc(Nc3nccc(-c4sc(C(C)C)nc4-c4cccc(NS(=O)(=O)c5ccc(F)cc5)c4)n3)cn2)CC1 = 8.02
• CC(C)c1nc(-c2ccc(F)c(NS(=O)(=O)c3c(F)cccc3F)c2)c(-c2ccnc(Nc3ccc(N4CCOCC4)nc3)n2)s1 = 8.42
• CC(C)c1nc(-c2cccc(NS(=O)(=O)c3c(F)cccc3F)c2F)c(-c2ccnc(Nc3ccc(N4CCOCC4)nc3)n2)s1 = 9.30
• CC(=O)N1CCN(c2ccc(Nc3nccc(-c4sc(C(C)C)nc4-c4cccc(NS(=O)(=O)c5cccc(F)c5)c4)n3)cn2)CC1 = 9.10
• CN1CCc2ccc(Nc3nccc(-c4c(-c5cccc(NS(=O)(=O)c6ccccc6)c5)nc5ccccn45)n3)cc2C1 = 6.88
• CC(=O)N1CCN(c2ccc(Nc3nccc(-c4sc(C(C)C)nc4-c4cccc(NS(=O)(=O)c5cccc(Cl)c5)c4)n3)cn2)CC1 = 7.47
• CC(=O)N1CCN(c2ccc(Nc3nccc(-c4sc(C(C)C)nc4-c4cccc(NS(=O)(=O)c5cc(F)ccc5F)c4)n3)cn2)CC1 = 9.22
• CC(C)c1nc(-c2cccc(NC(=O)c3c(F)cccc3F)c2)c(-c2ccnc(Nc3ccc4c(c3)CN(C)CC4)n2)s1 = 8.40
• CN1CCc2ccc(Nc3nccc(-c4c(-c5cccc(NC(=O)c6c(F)cccc6F)c5)nc5ccccn45)n3)cc2C1 = 8.05
• CC(C)c1nc(-c2cccc(NS(=O)(=O)c3ccccc3)c2)c(-c2ccnc(Nc3ccc4c(c3)CN(C)CC4)n2)s1 = 7.92
• CC(=O)N1CCN(c2ccc(Nc3nccc(-c4sc(C(C)C)nc4-c4cccc(NS(=O)(=O)c5c(F)cccc5F)c4)n3)cn2)CC1 = 8.89
• CC(=O)N1CCN(c2ccc(Nc3nccc(-c4sc(C(C)C)nc4-c4cccc(NS(=O)(=O)c5ccccc5F)c4)n3)cn2)CC1 = 9.22
• CN1CCc2ccc(Nc3nccc(-c4c(-c5cccc(C(=O)Nc6c(F)cccc6F)c5)nc5ccccn45)n3)cc2C1 = 7.92
• CCc1nc(-c2cccc(CS(=O)(=O)c3ccccc3)c2)c(-c2ccnc(Nc3ccc(N4CCN(C(C)=O)CC4)nc3)n2)s1 = 5.87
